target: HLA-A*11:01; assay: IEDB peptide-MHC binding, purified MHC/competitive/radioactivity; filed as Kd, often an IC50 or EC50 that approximates it; bounds were set here for any values at or beyond the usual limits of such assays; settings: source organism: Homo sapiens
endpoint: Kd (nM)

I. MSLQRQFLR
II. LLGPGRPYR
**Q:** Compare I and II by numeric Kd and name the larger one. When you have decided, please share the label of that item.
**A:** II
(II: 656 nM, I: 8.3 nM)

###

molecular target: HLA-A*31:01; assay: IEDB peptide-MHC binding, purified MHC/competitive/radioactivity; filed as Kd, often an IC50 or EC50 that approximates it; bounds were set here for any values at or beyond the usual limits of such assays; settings: source organism: Homo sapiens
endpoint: Kd (nM)

> print(dat)
   monomer.sequence  endpoint   u  observed
1         MSLQRQFLR        Kd  nM       8.3
2         LLGPGRPYR        Kd  nM        11
